Target: recombinant eIF4E (Homo sapiens (Human), UniProt P06730)
Sequence (P06730 whole entry): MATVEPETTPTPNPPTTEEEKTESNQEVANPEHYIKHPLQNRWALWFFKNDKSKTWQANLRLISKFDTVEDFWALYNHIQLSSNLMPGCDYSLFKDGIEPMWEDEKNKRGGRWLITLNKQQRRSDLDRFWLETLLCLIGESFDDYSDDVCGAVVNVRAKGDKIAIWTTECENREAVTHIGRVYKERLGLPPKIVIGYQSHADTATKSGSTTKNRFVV
Assay: Fluorescence polarization competition assay for eIF4E binding potency
Details: inhibition of eIF4E/EDA-m7GDP-ATTO-550 binding by 50%; Table 4B calculated values; read-out: IC50
Could you please report measured pIC50 for the items listed next?
# pIC50 = -log10(concentration in molar units)

QUERY: Given the entry Cc1nc2ccc(S(=O)(=O)NCc3ccccc3)c(C#N)c2c(=O)n1CCOc1ccc(Cl)cc1-c1ccnc2c(C(=O)O)csc12 , report its measured pIC50.
RESULT: 7.38

QUERY: Please look up its pIC50: Cc1nc2cc(C(F)(F)F)cc(C(F)F)c2c(=O)n1CCOc1ccc(Cl)cc1-c1ccnc2c(C(=O)O)csc12
RESULT: 6.67

QUERY: Requested read-out: pIC50. Entry: Cc1cc(-c2cc(Cl)ccc2OCCn2c(C)nc3cc(C(F)(F)F)c(-c4cnc(C)c(C)c4)c(C#N)c3c2=O)c2scc(C(=O)O)c2n1
RESULT: 7.91

QUERY: Need pIC50 of Cc1cc(-c2cc(Cl)ccc2OCCn2c(C)nc3cc(Cl)c(Nc4cccnc4)c(C#N)c3c2=O)c2scc(C(=O)O)c2n1 , thanks.
RESULT: 7.65

QUERY: Name the recorded pIC50 for Cc1nc2cc(C(F)(F)F)c(CN3CCCCC3)c(C#N)c2c(=O)n1CCOc1ccc(Cl)cc1-c1ccnc2c(C(=O)O)csc12 .
RESULT: 7.57

QUERY: # get_value(readout='pIC50', item= Cc1c(F)c2cc(C#N)cc(C#N)c2c(=O)n1CCOc1ccc(Cl)cc1-c1ccnc2c(C(=O)O)csc12 )
RESULT: 7.52

====

Biological target: recombinant eIF4E (Homo sapiens (Human))
Experiment: Fluorescence polarization competition assay for eIF4E binding potency
Conditions: inhibition of eIF4E/EDA-m7GDP-ATTO-550 binding; calculated IC50 values, Table 4B; read-out: IC50
Observable: IC50 (nM)
Record the value in nM, omitting the unit from your answer.

QUERY: Param item = Cc1sc2c(-c3cc(Cl)ccc3OCCn3c(C)nc4cc(C(F)(F)F)c(N5CCN(C)CC5=O)c(C#N)c4c3=O)ccnc2c1C(=O)O ; retrieve measured IC50.
RESULT: 28.1

QUERY: State the recorded IC50 for this entry: Cc1nc2cnc(N(C)C3CCN(C4(C(F)F)CC4)CC3)c(C#N)c2c(=O)n1CC#Cc1ccc(Cl)cc1-c1ccnc2c(C(=O)O)csc12
RESULT: 17.7

QUERY: Would you mind telling me what IC50 value was observed for Cc1nc2cnc(N(C)C3(C)CCN(CC(F)F)CC3)c(C#N)c2c(=O)n1CC#Cc1ccc(Cl)cc1-c1ccnc2c(C(=O)O)csc12 ?
RESULT: 51.7

QUERY: Entry under review: Cc1nc2cnc(C#CCN(C)CCF)c(C#N)c2c(=O)n1CCOc1ccc(Cl)cc1-c1ccnc2c(C(=O)O)csc12 . Reported IC50?
RESULT: 12.8

QUERY: Sample Cc1nc2cc(Cl)c(C#N)c(C#N)c2c(=O)n1CCOc1ccc(Cl)cc1-c1ccnc2c(C(=O)O)csc12 — what was its IC50?
RESULT: 21.6

QUERY: Which measured IC50 value corresponds to O=C(O)c1cccc(-c2cc(Cl)ccc2OCCn2cnc3cnccc3c2=O)c1 ?
RESULT: 490

====

Answer each item with its documented IC50.
Target: recombinant eIF4E (Homo sapiens (Human), UniProt P06730)
Assay: Fluorescence polarization competition assay for eIF4E binding potency
Conditions: fluorescence polarization competition, 75 nM recombinant eIF4E, 20 nM EDA-m7GDP-ATTO-550; IC50 class; read-out: elF4E FP

QUERY: I would be grateful if you could share the reported IC50 for Cc1cc(-c2cc(Cl)ccc2OCCn2c(C)nc3cc(C(F)(F)F)c(-c4cn(C)cn4)c(C#N)c3c2=O)c2scc(C(=O)O)c2n1 .
RESULT: < 0.05 µM

QUERY: Can you look up the measured IC50 of N#Cc1ccc2ncn(CCOc3ccc(Cl)cc3-c3cccc(C(=O)O)c3)c(=O)c2c1C#N for me?
RESULT: 0.05 to 1 µM

QUERY: Returns the measured IC50 for the input molecule. Input: O=C(O)c1cccc(-c2cc(Cl)ccc2OCCn2cnc3cc(F)cc(F)c3c2=O)c1
RESULT: > 1 µM

QUERY: Given the molecule Cc1cc(-c2cc(Cl)ccc2OCCn2c(C)nc3cnc(N4CC[C@@H](O)C4)c(C#N)c3c2=O)c2scc(C(=O)O)c2n1 , what is its reported IC50?
RESULT: < 0.05 µM

QUERY: Endpoint output: IC50 of Cc1cc2cc(C(F)(F)F)c(N3CCN(C)CC3)c(C#N)c2c(=O)n1CCOc1ccc(Cl)cc1-c1ccnc2c(C(=O)O)csc12 . Value?
RESULT: < 0.05 µM

QUERY: Fill in the blank: the reported IC50 of N#Cc1cc2c(=O)n(CC#Cc3ccc(Cl)cc3-c3cccc(C(=O)O)c3)cnc2cn1 is ____.
RESULT: > 1 µM

QUERY: Which IC50 value is on record for Cc1nc2cc(C(F)(F)F)c(N3CCN(C)CC3)c(C#N)c2c(=O)n1CCOc1ccc(Cl)cc1-c1ccnc2c(C(=O)NS(C)(=O)=O)csc12 ?
RESULT: < 0.05 µM

====

Target: recombinant eIF4E (Homo sapiens (Human), UniProt P06730)
Assay: Fluorescence polarization competition assay for eIF4E binding potency
Conditions: fluorescence polarization competition, 75 nM recombinant eIF4E, 20 nM EDA-m7GDP-ATTO-550; IC50 class; read-out: elF4E FP
Observable: IC50

QUERY: Name the reported IC50 value associated with the compound Cc1nc2ccc(Cl)c(C#N)c2c(=O)n1CCOc1ccc(Cl)cc1-c1cccc(C(=O)O)c1
RESULT: < 50 nM

QUERY: What does the record list as IC50 for Cc1ccc(-c2cc(Cl)ccc2OCCn2c(C)nc3c(C#N)nc(-c4cccnc4)c(C)c3c2=O)c2scc(C(=O)O)c12 ?
RESULT: 50 to 1000 nM

QUERY: Please look up its IC50: Cc1cc(-c2cc(Cl)ccc2OCCn2c(C)nc3cc(C(F)(F)F)c(CN4CC5CCC(C4)N5C)c(C#N)c3c2=O)c2scc(C(=O)O)c2n1
RESULT: < 50 nM

QUERY: Given the compound Cc1nc2cnc(N(C)C3CCN(CC(F)(F)C(F)F)CC3)c(C#N)c2c(=O)n1CC#Cc1ccc(Cl)cc1-c1ccnc2c(C(=O)O)csc12 , what is its reported IC50?
RESULT: < 50 nM

QUERY: Any idea what its IC50 is? The compound is CCCCc1nc2c(=O)n(CCOc3ccc(Cl)cc3-c3cc(C)nc4c(C(=O)O)csc34)c(C)nc2cc1C(F)(F)F
RESULT: < 50 nM

QUERY: Which value of IC50 has been reported for O=C(O)c1cccc(-c2cc(Cl)ccc2OCCn2cnc3ncncc3c2=O)c1 in the records?
RESULT: 50 to 1000 nM

QUERY: Which IC50 is listed for Cc1nc2cnc(N3CCN(C)CC3)c(C#N)c2c(=O)n1CC#Cc1ccc(Cl)cc1-c1ccnc2c(C(=O)O)csc12 ?
RESULT: < 50 nM

QUERY: Tell me the measured IC50 of N#Cc1cc2c(=O)n(CCOc3ccc(Cl)cc3-c3ccnc(C(=O)O)c3)cnc2cn1 , please.
RESULT: 50 to 1000 nM

QUERY: Which IC50 value is on record for Cc1nc2cc(C(F)(F)F)c(CN(C)CC(F)F)c(C#N)c2c(=O)n1CCOc1ccc(Cl)cc1-c1ccnc2c(C(=O)O)csc12 ?
RESULT: < 50 nM

QUERY: Give its IC50 value. Item: Cc1nc(N2CCN(C)C3CC32)c(C#N)c2c(=O)n(CCOc3ccc(Cl)cc3-c3ccnc4c(C(=O)O)csc34)c(C)nc12 (stereo not shown)
RESULT: < 50 nM

QUERY: Give the measured IC50 of Cc1nc2cc(C(F)(F)F)c(N3CCN(C4COC4)CC3)c(C#N)c2c(=O)n1CCOc1ccc(Cl)cc1-c1ccnc2c(C(=O)O)csc12 .
RESULT: < 50 nM

QUERY: Suppose we examine the compound CC(=O)c1cnn2c(-c3cc(Cl)ccc3OCCn3c(C)nc4cc(C(F)(F)F)cc(C#N)c4c3=O)cc(C)nc12 ; what IC50 value has been reported?
RESULT: < 50 nM

QUERY: Could you tell me which IC50 is on file for CCc1cc(-c2cc(Cl)ccc2OCCn2c(C)nc3cc(CN(C)C)c(OC(F)F)c(C#N)c3c2=O)c2scc(C(=O)O)c2n1 ?
RESULT: < 50 nM

====

Molecular target: recombinant eIF4E (Homo sapiens (Human))
Experiment: Fluorescence polarization competition assay for eIF4E binding potency
Details: inhibition of eIF4E/EDA-m7GDP-ATTO-550 binding by 50%; Table 4B calculated values; read-out: IC50
For each of the compounds below, state its IC50.
Numeric only. Scale: nM

QUERY: Dear colleague, I am looking for the recorded IC50 of the following compound: Cc1cc(-c2cc(Cl)ccc2OCCn2c(C)nc3cc(C(F)F)c(O)c(C#N)c3c2=O)c2scc(C(=O)O)c2n1 [439b]
RESULT: 32

QUERY: Tell me the measured IC50 of Cc1cc(-c2cc(Cl)ccc2OCCn2c(C)nc3cc(CCN(C)C)c(OC(F)F)c(C#N)c3c2=O)c2scc(C(=O)O)c2n1 , please.
RESULT: 5.5

QUERY: Item Cc1cc(-c2cc(Cl)ccc2OCCn2c(C)nc3cc(C(F)(F)F)c(N4CCCCC4)c(C#N)c3c2=O)c2scc(C(=O)O)c2n1 has what recorded IC50?
RESULT: 8.84

QUERY: Tell me the measured IC50 of Cc1cc(-c2cc(Cl)ccc2OCCn2c(C)nc3cc(Cl)c(N4CC(S(C)(=O)=O)C4)c(C#N)c3c2=O)c2scc(C(=O)O)c2n1 , please.
RESULT: 12.7

QUERY: Reported IC50 for O=C(O)c1cccc(-c2cc(Cl)ccc2OCCn2cnc3ccncc3c2=O)c1 [compound 13] : what is it?
RESULT: 1070

QUERY: I'd like to know its IC50. The compound in question is N#Cc1cc(C(F)(F)F)cc2nc(CF)n(CCOc3ccc(Cl)cc3-c3cccc(C(=O)O)c3)c(=O)c12
RESULT: 43.8

QUERY: Tell me the measured IC50 of CCc1ncc2nc(C)n(CCOc3ccc(Cl)cc3-c3ccnc4c(C(=O)O)csc34)c(=O)c2c1C#N , please.
RESULT: 4.04
